- PROCEDURE_DETAILS: Aqueous solubility at pH 6.5
- Type: physicochemical

| COMPOUND_STRUCTURE_STRING | READING_UNIT | solubility |
| --- | --- | --- |
| O=C(Cn1ccnc1[N+](=O)[O-])NCc1ccccc1 | µg/mL | 400 |
